The entries below are paired with their reported Mean Signal Value.
target_under_test: T1, human CD26-derived 13 mer peptide 26 (human)
T1 peptide: FGHSINDYSISPD
assay_remarks: peptide microarray
Enter a number only.

# count of solved cases: 2
1) rhuMAb 420 (antibody, human IgG1, V domains shown, X420 VH and X380 VL with human IgG1 and human kappa constant regions; also called X420 (IgG1)) VH: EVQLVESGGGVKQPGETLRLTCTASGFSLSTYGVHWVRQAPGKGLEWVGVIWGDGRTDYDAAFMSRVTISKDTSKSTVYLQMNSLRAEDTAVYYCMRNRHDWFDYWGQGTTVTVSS VL: EIEMTQSPSSLSVSAGERATISCSASQDIRNSLNWYQQKPGQAPRLLIYYSSNLHTGVPARFSGSGSGTDFTLTISRLEPEDVAIYYCQQSNKLPLTFGSGTKVEIKR; 0
2) rhuMAb 409 (antibody, human IgG1, V domains shown, CM03 VH and VL with human IgG1 heavy chain constant region and human kappa constant region; also called X409) VH: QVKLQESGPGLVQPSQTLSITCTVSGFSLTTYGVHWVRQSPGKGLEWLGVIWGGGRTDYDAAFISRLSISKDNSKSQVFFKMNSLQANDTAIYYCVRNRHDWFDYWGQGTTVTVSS VL: DIQMTQSPSSLSASLGDRVTITCSASQGIRNSLNWYQQKPDGAVKLLIYYSSNLHSGVPSRFSGSGSGTDFSLTISNLEPEDIATYYCQQSIKLPFTFGSGTKLEIKR; 0

[Q] Tell us which Mean Signal Value value is on record for rhuMAb 411 (antibody, human IgG1, kappa, V domains shown, also called X411) VH: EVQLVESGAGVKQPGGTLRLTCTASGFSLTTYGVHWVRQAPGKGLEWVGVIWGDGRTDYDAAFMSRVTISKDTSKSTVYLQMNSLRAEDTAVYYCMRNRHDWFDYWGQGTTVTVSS VL: DILLTQSPSSLSATPGERATITCRASQGIRNNLNWYQQKPGQAPRLLIYYSSNLQSGVPSRFSGSGSGTDFTLTISRLQPEDVAAYYCQQSIKLPFTFGSGTKVEIKR
[A] 0.0337

[Q] Tell us which Mean Signal Value value is on record for rhuMAb 412 (antibody, human IgG1, V domains shown, X385 VH and X380 VL with human IgG1 and human kappa constant regions; also called X412) VH: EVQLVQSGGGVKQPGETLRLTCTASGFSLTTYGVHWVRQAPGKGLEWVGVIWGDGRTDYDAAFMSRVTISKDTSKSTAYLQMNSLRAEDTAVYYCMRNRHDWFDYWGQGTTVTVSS VL: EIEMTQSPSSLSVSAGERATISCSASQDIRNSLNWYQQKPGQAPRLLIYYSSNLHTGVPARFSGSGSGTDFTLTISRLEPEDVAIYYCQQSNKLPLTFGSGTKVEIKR
[A] 0
